ASSAY_SYSTEM: Hypoxia-inducible factor 1-alpha (Homo sapiens)
TEST_DETAILS: Inhibition of hypoxia induced HIF1-alpha transcriptional activity in human Hep3B cells by reporter gene assay
Assay type: cell-based
CONDITION_CONTEXT: hep 3b2
PARAMETER: pIC50
Scale note: pIC50 = -log10(concentration in M).

Test system Hypoxia-inducible factor 1-alpha (Homo sapiens); read-out pIC50; what value for `O=C(COc1ccc(C23CC4CC(CC(C4)C2)C3)cc1)Nc1cccc(C(=O)O)c1` ? 6.40

Test system Hypoxia-inducible factor 1-alpha (Homo sapiens); read-out pIC50; what value for `COC(=O)c1cccc(NC(=O)COc2ccc(C34CC5CC(CC(C5)C3)C4)cc2)c1` ? 5.59

Test system Hypoxia-inducible factor 1-alpha (Homo sapiens); read-out pIC50; what value for `O=C(COc1ccc(C23CC4CC(CC(C4)C2)C3)cc1)Nc1cc(C(=O)O)ccn1` ? 6.00

Test system Hypoxia-inducible factor 1-alpha (Homo sapiens); read-out pIC50; what value for `COC(=O)c1cncc(NC(=O)COc2ccc(C34CC5CC(CC(C5)C3)C4)cc2)c1` ? 5.23

Test system Hypoxia-inducible factor 1-alpha (Homo sapiens); read-out pIC50; what value for `O=C(COc1ccc(C23CC4CC(CC(C4)C2)C3)cc1)Nc1cc(C(=O)NCCCn2ccnc2)ccn1` ? 4.95

Test system Hypoxia-inducible factor 1-alpha (Homo sapiens); read-out pIC50; what value for `O=C(COc1ccc(C23CC4CC(CC(C4)C2)C3)cc1)Nc1cc(C(=O)NCCc2ccncc2)ccn1` ? 5.47

Test system Hypoxia-inducible factor 1-alpha (Homo sapiens); read-out pIC50; what value for `COC(=O)c1ccnc(NC(=O)COc2ccc(C34CC5CC(CC(C5)C3)C4)cc2)c1` ? 5.92

Test system Hypoxia-inducible factor 1-alpha (Homo sapiens); read-out pIC50; what value for `NC(=O)c1ccnc(NC(=O)COc2ccc(C34CC5CC(CC(C5)C3)C4)cc2)c1` ? 5.51

====

ASSAY_SYSTEM: Hypoxia-inducible factor 1-alpha (Homo sapiens)
TEST_DETAILS: Inhibition of hypoxia induced HIF1-alpha transcriptional activity in human AGS cells by reporter gene assay
Type: cell-based
PARAMETER: IC50 (nM)
Express your answer in nM, writing the number without its unit.

For the compound shown here, `O=C(COc1ccc(C23CC4CC(CC(C4)C2)C3)cc1)Nc1cc(C(=O)NCCc2ccncc2)ccn1` , give the reported IC50. 5200

For the compound shown here, `NC(=O)c1cncc(NC(=O)COc2ccc(C34CC5CC(CC(C5)C3)C4)cc2)c1` , give the reported IC50. 900

For the compound shown here, `COC(=O)c1ccnc(NC(=O)COc2ccc(C34CC5CC(CC(C5)C3)C4)cc2)c1` , give the reported IC50. 2000

For the compound shown here, `O=C(COc1ccc(C23CC4CC(CC(C4)C2)C3)cc1)Nc1cc(C(=O)Nc2ccc(Cl)cc2)ccn1` , give the reported IC50. 18600

For the compound shown here, `O=C(COc1ccc(C23CC4CC(CC(C4)C2)C3)cc1)Nc1cccc(C(=O)O)c1` , give the reported IC50. 350

For the compound shown here, `COC(=O)c1cncc(NC(=O)COc2ccc(C34CC5CC(CC(C5)C3)C4)cc2)c1` , give the reported IC50. 5000

For the compound shown here, `NC(=O)c1ccnc(NC(=O)COc2ccc(C34CC5CC(CC(C5)C3)C4)cc2)c1` , give the reported IC50. 1800

For the compound shown here, `O=C(COc1ccc(C23CC4CC(CC(C4)C2)C3)cc1)Nc1cncc(C(=O)NCc2ccco2)c1` , give the reported IC50. 30000

For the compound shown here, `O=C(COc1ccc(C23CC4CC(CC(C4)C2)C3)cc1)Nc1cc(C(=O)NCCCn2ccnc2)ccn1` , give the reported IC50. 11000

For the compound shown here, `O=C(COc1ccc(C23CC4CC(CC(C4)C2)C3)cc1)Nc1cc(C(=O)O)ccn1` , give the reported IC50. 800

For the compound shown here, `COC(=O)c1cccc(NC(=O)COc2ccc(C34CC5CC(CC(C5)C3)C4)cc2)c1` , give the reported IC50. 700

For the compound shown here, `O=C(COc1ccc(C23CC4CC(CC(C4)C2)C3)cc1)Nc1cncc(C(=O)NCCc2ccncc2)c1` , give the reported IC50. 1300

====

ASSAY_SYSTEM: Hypoxia-inducible factor 1-alpha (Homo sapiens, UniProt Q16665)
Sequence (Q16665 whole entry): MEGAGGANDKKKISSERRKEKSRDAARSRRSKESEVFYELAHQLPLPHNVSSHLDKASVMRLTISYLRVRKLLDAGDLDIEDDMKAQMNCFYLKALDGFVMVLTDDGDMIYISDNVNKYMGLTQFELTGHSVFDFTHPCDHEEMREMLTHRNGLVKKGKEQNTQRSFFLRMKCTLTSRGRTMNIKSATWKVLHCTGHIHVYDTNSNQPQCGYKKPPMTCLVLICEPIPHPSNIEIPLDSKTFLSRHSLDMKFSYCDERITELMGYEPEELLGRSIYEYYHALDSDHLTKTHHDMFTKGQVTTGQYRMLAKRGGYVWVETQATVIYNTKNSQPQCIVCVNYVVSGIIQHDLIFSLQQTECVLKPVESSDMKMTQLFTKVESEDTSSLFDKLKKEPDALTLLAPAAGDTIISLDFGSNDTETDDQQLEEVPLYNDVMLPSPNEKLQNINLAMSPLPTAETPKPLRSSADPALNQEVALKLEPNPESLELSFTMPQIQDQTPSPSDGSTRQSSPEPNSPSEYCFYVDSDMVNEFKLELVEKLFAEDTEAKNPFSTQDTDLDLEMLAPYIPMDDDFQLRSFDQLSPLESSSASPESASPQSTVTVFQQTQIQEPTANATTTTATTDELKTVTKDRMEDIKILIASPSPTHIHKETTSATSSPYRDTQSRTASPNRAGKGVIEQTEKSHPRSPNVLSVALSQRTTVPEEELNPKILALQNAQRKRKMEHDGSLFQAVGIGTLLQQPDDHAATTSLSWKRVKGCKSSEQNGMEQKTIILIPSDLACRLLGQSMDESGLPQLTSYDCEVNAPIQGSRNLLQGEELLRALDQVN
TEST_DETAILS: Inhibition of hypoxia induced HIF1-alpha transcriptional activity in human Sk-Hep1 cells by reporter gene assay
Type: cell-based
PARAMETER: pIC50
Scale note: pIC50 = -log10(concentration in M).

Test system Hypoxia-inducible factor 1-alpha (Homo sapiens, UniProt Q16665); read-out pIC50; what value for `O=C(COc1ccc(C23CC4CC(CC(C4)C2)C3)cc1)Nc1cc(C(=O)NCCCn2ccnc2)ccn1` ? 6.05

Test system Hypoxia-inducible factor 1-alpha (Homo sapiens, UniProt Q16665); read-out pIC50; what value for `NC(=O)c1ccnc(NC(=O)COc2ccc(C34CC5CC(CC(C5)C3)C4)cc2)c1` ? 6.22

Test system Hypoxia-inducible factor 1-alpha (Homo sapiens, UniProt Q16665); read-out pIC50; what value for `O=C(COc1ccc(C23CC4CC(CC(C4)C2)C3)cc1)Nc1cncc(C(=O)NCc2ccco2)c1` ? 5.39

Test system Hypoxia-inducible factor 1-alpha (Homo sapiens, UniProt Q16665); read-out pIC50; what value for `COC(=O)c1ccnc(NC(=O)COc2ccc(C34CC5CC(CC(C5)C3)C4)cc2)c1` ? 5.99

Test system Hypoxia-inducible factor 1-alpha (Homo sapiens, UniProt Q16665); read-out pIC50; what value for `NC(=O)c1cncc(NC(=O)COc2ccc(C34CC5CC(CC(C5)C3)C4)cc2)c1` ? 4.92

Test system Hypoxia-inducible factor 1-alpha (Homo sapiens, UniProt Q16665); read-out pIC50; what value for `O=C(COc1ccc(C23CC4CC(CC(C4)C2)C3)cc1)Nc1cc(C(=O)NCCc2ccncc2)ccn1` ? 5.47

Test system Hypoxia-inducible factor 1-alpha (Homo sapiens, UniProt Q16665); read-out pIC50; what value for `O=C(COc1ccc(C23CC4CC(CC(C4)C2)C3)cc1)Nc1cncc(C(=O)NCCCn2ccnc2)c1` ? 5.72

Test system Hypoxia-inducible factor 1-alpha (Homo sapiens, UniProt Q16665); read-out pIC50; what value for `O=C(COc1ccc(C23CC4CC(CC(C4)C2)C3)cc1)Nc1cc(C(=O)Nc2ccc(Cl)cc2)ccn1` ? 5.60

Test system Hypoxia-inducible factor 1-alpha (Homo sapiens, UniProt Q16665); read-out pIC50; what value for `O=C(COc1ccc(C23CC4CC(CC(C4)C2)C3)cc1)Nc1cc(C(=O)O)ccn1` ? 5.70

====

ASSAY_SYSTEM: Hypoxia-inducible factor 1-alpha (Homo sapiens, UniProt Q16665)
TEST_DETAILS: Inhibition of hypoxia induced HIF1-alpha transcriptional activity in human Hep3B cells by reporter gene assay
Format: cell-based
CONDITION_CONTEXT: hep 3b2
PARAMETER: IC50

For the compound shown here, `O=C(COc1ccc(C23CC4CC(CC(C4)C2)C3)cc1)Nc1cncc(C(=O)NCCCn2ccnc2)c1` , give the reported IC50. > 10 µM

For the compound shown here, `O=C(COc1ccc(C23CC4CC(CC(C4)C2)C3)cc1)Nc1cncc(C(=O)NCc2ccco2)c1` , give the reported IC50. > 30 µM

For the compound shown here, `NC(=O)c1cncc(NC(=O)COc2ccc(C34CC5CC(CC(C5)C3)C4)cc2)c1` , give the reported IC50. > 10 µM

For the compound shown here, `O=C(COc1ccc(C23CC4CC(CC(C4)C2)C3)cc1)Nc1cncc(C(=O)NCCc2ccncc2)c1` , give the reported IC50. > 30 µM

For the compound shown here, `O=C(COc1ccc(C23CC4CC(CC(C4)C2)C3)cc1)Nc1cncc(C(=O)O)c1` , give the reported IC50. > 30 µM

For the compound shown here, `O=C(COc1ccc(C23CC4CC(CC(C4)C2)C3)cc1)Nc1cc(C(=O)NCc2ccco2)ccn1` , give the reported IC50. > 30 µM

For the compound shown here, `O=C(COc1ccc(C23CC4CC(CC(C4)C2)C3)cc1)Nc1cc(C(=O)Nc2ccc(Cl)cc2)ccn1` , give the reported IC50. > 30 µM

====

Would you mind telling me the reported pIC50 of each entry?
ASSAY_SYSTEM: Hypoxia-inducible factor 1-alpha (Homo sapiens, UniProt Q16665)
TEST_DETAILS: Inhibition of hypoxia induced HIF1-alpha transcriptional activity in human AGS cells by reporter gene assay
Assay type: cell-based
pIC50: −log10 of the molar value.

For the compound shown here, `O=C(COc1ccc(C23CC4CC(CC(C4)C2)C3)cc1)Nc1cncc(C(=O)NCCCn2ccnc2)c1` , give the reported pIC50. < 5.00

For the compound shown here, `O=C(COc1ccc(C23CC4CC(CC(C4)C2)C3)cc1)Nc1cncc(C(=O)O)c1` , give the reported pIC50. < 4.52

For the compound shown here, `O=C(COc1ccc(C23CC4CC(CC(C4)C2)C3)cc1)Nc1cc(C(=O)NCc2ccco2)ccn1` , give the reported pIC50. < 4.52
